Some molecules, each annotated with its measured OD 650 nm (mean ± sd).
biological target: TLR9 (Homo sapiens, UniProt Q9NR96); construct: expressed in transfected cells; host or cells: HEK293; experiment: TLR9 screening of (+)-morphinan library, SEAP reporter in HEK293 cells expressing TLR9; type: cell-based; conditions: 100 nM; activator ODN2006; control (no activator) 0.14, activator 1.42 OD
Sequence (Q9NR96 26-1032): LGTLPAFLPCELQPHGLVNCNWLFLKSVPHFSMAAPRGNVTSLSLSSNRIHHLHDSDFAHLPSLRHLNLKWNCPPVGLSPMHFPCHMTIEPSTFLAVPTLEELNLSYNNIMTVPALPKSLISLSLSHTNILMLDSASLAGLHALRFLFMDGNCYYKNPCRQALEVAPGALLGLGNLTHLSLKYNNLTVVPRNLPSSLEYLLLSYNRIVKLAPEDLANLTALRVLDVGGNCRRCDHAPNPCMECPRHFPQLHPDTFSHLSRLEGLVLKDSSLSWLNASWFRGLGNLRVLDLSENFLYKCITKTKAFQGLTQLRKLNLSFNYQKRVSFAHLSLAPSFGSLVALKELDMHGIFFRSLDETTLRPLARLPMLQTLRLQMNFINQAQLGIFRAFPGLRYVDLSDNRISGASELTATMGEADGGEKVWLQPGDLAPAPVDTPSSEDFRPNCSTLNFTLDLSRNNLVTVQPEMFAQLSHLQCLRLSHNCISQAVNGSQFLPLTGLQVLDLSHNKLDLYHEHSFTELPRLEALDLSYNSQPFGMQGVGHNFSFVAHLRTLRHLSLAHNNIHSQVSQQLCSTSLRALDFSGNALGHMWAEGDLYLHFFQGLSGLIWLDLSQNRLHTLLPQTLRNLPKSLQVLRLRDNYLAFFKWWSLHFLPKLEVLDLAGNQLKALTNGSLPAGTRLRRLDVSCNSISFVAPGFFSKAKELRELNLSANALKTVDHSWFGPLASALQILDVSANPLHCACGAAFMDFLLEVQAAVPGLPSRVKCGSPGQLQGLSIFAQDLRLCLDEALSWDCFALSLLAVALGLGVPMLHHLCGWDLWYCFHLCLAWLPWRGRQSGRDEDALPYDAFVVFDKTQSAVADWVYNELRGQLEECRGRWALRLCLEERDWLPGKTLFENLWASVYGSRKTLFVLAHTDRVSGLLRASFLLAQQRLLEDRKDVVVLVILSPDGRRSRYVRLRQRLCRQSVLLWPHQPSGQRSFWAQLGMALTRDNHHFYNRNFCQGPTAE
# value in OD; strip the unit string

Past entries and their recorded results:
# molecule, OD 650 nm (mean ± sd) (OD)
measured = [
    ("COc1ccc2c3c1O[C@@H]1[C@@H]4CCC5(O4)[C@H](C2)N(CC2CC2)CC[C@@]315 [II-72]", 1.10),
    ("COC1=CC=C2[C@@H]3Cc4ccc(OC)c5c4[C@]2(CCN3CC2CCC2)[C@@H]1O5 [II-37]", 1.13),
    ("C=CCN1CC[C@@]23c4c5ccc(OC)c4OC2C(OC(C)=O)CC[C@@H]3C1C5 (single isomer, unassigned) [II-94a]", 1.13),
    ("COc1ccc2c3c1O[C@@H]1C(=O)CC[C@]4(O)[C@H](C2)N(C)CC[C@@]314 [II-39]", 1.23),
    ("COc1ccc2c3c1OC1C(O)CC[C@@H]4[C@H](C2)N(C)CC[C@@]314 (some centres unmarked) [II-7]", 1.32),
]

[in] Please supply the value of reported OD 650 nm (mean ± sd) for the item CC(=O)NC1CC[C@]2(O)[C@@H]3Cc4ccc(O)c5c4[C@]2(CCN3CC2CC2)[C@@H]1O5 (some centres unmarked) [II-75]
[out] 1.08

[in] Please supply the value of reported OD 650 nm (mean ± sd) for the item COc1ccc2c3c1O[C@@H]1C4(CCC5[C@H](C2)N(CC2CC2)CC[C@]351)OCCO4 (some centres unmarked) [II-97]
[out] 1.22

[in] Please supply the value of reported OD 650 nm (mean ± sd) for the item COc1ccc2c3c1O[C@@H]1C(=O)CC[C@@H]4[C@H](C2)N(Cc2ccccc2)CC[C@@]314 [II-29]
[out] 1.36

====

Some compounds, each annotated with its measured OD 650 nm (mean ± sd).
biological target: TLR9 (Homo sapiens, UniProt Q9NR96); construct: expressed in transfected cells; host or cells: HEK293; experiment: TLR9 screening of (+)-morphinan library, SEAP reporter in HEK293 cells expressing TLR9; format: cell-based; conditions: 100 nM; activator ODN2006; control (no activator) 0.14, activator 1.42 OD
# value in OD; strip the unit string

[in] Please supply the value of reported OD 650 nm (mean ± sd) for the item COc1ccc2c(c1O)[C@@]13CCN(CC4CCC4)[C@@H](C2)C1CCC(=O)C3 (stereo partly shown)
[out] 1.06

[in] Please supply the value of reported OD 650 nm (mean ± sd) for the item "C=CCN1CC[C@@]23c4c5ccc(O)c4O[C@@H]2C(=O)CC[C@]3(O)[C@@H]1C5"
[out] 1.31

[in] Please supply the value of reported OD 650 nm (mean ± sd) for the item COc1ccc2c3c1O[C@@H]1C(=O)CC[C@@H]4[C@H](C2)N(C(=O)C2CC2)CC[C@@]314 [II-57]
[out] 0.84

[in] Please supply the value of reported OD 650 nm (mean ± sd) for the item COc1ccc2c3c1O[C@@H]1C(NCCO)CC[C@@H]4[C@H](C2)N(C)CC[C@@]314 (stereo partly shown)
[out] 0.24

Data provenance is patent US10363251B2.
